# IC50 annotations
# tested target: full length G2019 human LRRK2 (Homo sapiens, UniProt Q5S007, R50H)
# Sequence (Q5S007 with tags, fused parts or gaps R50H): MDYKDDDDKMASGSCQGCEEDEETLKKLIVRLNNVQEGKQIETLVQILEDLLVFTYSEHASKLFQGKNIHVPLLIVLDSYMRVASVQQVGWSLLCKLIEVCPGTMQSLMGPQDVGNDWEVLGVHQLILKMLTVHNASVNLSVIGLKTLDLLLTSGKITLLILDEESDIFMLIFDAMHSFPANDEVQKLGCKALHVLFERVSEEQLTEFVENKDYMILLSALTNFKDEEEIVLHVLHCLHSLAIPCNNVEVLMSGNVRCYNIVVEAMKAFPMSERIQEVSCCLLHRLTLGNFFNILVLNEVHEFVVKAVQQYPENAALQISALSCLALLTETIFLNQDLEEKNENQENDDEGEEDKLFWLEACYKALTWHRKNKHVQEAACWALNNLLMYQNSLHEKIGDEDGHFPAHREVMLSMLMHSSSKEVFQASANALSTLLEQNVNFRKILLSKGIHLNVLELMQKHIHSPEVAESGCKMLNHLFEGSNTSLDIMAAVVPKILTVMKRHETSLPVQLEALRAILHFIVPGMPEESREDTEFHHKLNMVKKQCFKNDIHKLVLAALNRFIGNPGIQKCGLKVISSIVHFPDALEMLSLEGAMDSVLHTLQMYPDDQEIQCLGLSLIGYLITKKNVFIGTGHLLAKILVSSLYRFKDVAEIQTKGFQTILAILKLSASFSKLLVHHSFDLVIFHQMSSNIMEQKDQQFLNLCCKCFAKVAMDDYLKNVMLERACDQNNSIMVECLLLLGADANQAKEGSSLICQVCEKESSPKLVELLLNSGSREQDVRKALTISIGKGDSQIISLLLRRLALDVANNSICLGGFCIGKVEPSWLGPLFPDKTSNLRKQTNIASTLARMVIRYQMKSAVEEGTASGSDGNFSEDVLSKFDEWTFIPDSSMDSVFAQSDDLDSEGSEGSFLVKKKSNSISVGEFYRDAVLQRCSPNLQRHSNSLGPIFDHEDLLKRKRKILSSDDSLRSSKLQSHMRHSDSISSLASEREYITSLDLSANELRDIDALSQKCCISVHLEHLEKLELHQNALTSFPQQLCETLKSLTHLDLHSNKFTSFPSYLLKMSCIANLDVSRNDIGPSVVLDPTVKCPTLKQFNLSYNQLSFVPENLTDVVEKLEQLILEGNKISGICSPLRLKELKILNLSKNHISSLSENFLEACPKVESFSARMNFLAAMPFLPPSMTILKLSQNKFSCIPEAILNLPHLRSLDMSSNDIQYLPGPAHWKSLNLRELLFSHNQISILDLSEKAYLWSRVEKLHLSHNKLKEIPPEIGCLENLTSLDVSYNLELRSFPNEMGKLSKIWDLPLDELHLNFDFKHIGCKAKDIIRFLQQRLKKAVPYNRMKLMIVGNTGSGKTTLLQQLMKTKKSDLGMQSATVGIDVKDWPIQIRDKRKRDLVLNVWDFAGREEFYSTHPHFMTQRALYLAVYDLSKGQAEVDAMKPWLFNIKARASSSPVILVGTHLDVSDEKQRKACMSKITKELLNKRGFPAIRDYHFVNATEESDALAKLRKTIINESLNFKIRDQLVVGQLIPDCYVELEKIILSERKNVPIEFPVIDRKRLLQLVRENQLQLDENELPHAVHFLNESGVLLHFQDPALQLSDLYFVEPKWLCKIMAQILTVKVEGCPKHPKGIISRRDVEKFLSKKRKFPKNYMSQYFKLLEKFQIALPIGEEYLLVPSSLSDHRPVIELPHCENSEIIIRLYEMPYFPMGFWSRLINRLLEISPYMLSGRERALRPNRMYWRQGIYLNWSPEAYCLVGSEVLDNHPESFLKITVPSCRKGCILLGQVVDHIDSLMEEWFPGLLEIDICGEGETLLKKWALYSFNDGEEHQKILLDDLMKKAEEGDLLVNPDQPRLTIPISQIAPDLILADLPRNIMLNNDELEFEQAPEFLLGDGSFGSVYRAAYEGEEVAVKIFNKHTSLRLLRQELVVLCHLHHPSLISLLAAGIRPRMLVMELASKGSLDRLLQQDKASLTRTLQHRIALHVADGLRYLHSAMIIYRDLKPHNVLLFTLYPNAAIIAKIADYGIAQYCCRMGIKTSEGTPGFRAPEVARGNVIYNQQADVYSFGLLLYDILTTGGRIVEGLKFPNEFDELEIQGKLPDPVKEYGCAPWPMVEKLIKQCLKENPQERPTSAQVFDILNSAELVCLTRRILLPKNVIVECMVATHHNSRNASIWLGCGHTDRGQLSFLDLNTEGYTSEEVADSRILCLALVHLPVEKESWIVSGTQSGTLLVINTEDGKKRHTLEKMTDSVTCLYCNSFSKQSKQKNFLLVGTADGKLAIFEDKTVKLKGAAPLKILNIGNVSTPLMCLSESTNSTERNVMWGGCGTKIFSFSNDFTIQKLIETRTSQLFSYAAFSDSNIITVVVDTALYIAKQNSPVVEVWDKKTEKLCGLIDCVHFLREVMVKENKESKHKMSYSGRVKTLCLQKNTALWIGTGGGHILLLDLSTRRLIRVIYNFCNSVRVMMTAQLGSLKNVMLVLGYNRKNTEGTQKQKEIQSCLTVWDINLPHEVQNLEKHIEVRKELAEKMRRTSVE
# assay comment: Full length G2019 human LRRK2 inhibition mass spectrometry assay
# run parameters: LRRKtide to phospho-LRRKtide conversion, RapidFire MS, 2 mM ATP

- Cc1c2c(nn1C1CN(C3CCOCC3)C1)OCCCNc1nc(ncc1Cl)N2: ≤ 100 nM
- COCC1CCOc2nn(C3CCOCC3F)c(C)c2Nc2ncc(Cl)c(n2)N1 (single isomer, unassigned) [E351]: ≤ 100 nM

Query FC(F)(F)c1cnc2nc1NCCCOc1nn(C3CCCOC3)cc1N2 (stereo not drawn) yields IC50 of ≤ 100 nM

Recorded result, Cc1c2c(nn1C1CCC(C)CC1)OCCC(C)Nc1nc(ncc1Cl)N2 (single isomer, unassigned) [E261] , IC50: ≤ 10000 nM

Reported IC50 for Cc1c2c(nn1C1CC(N3CCC(F)(F)C3)C1)OCCC(C)Nc1nc(ncc1Cl)N2 (single isomer, unassigned) [E316] was ≤ 100 nM

What the record says about Cc1c2c(nn1C1COCCC1(F)F)OCCCNc1nc(ncc1Cl)N2 (single isomer, unassigned) [E303] : IC50 is ≤ 10000 nM

Measured IC50 of COC(C)c1c2c(nn1C1CCOCC1)OCC[C@@H](C)Nc1nc(ncc1Cl)N2 (stereo partly drawn) : ≤ 10000 nM

So for COCC1CCOc2nn(C3CCOCC3F)c(C)c2Nc2ncc(Cl)c(n2)N1 (single isomer, unassigned) [E358] , the logged IC50 turned out to be ≤ 100 nM

Lab book: IC50 of Cc1c2c(nn1C1CCC(N3CCC(F)C3)CC1)OCCCNc1nc(ncc1Cl)N2 (single isomer, unassigned) [E155] noted as ≤ 100 nM

Noted for Cc1c2c(nn1CC(C)(C)O)OCCCNc1nc(ncc1Cl)N2 : its IC50 reads ≤ 10000 nM

response.value for Cc1c2c(nn1C1CCOCC1)OC(C)CCNc1nc(ncc1Cl)N2 (single isomer, unassigned) (field: IC50) = ≤ 100 nM

Lab book: IC50 of Cc1c2c(nn1C1CCOCC1)OCCC(C1CC1)Nc1nc(ncc1Cl)N2 (single isomer, unassigned) [E293] noted as ≤ 100 nM

Entry COC1CNc2nc(ncc2Cl)Nc2c(nn(C3CCC(C(F)(F)F)CC3)c2C)OC1 (single isomer, unassigned) [E279] — recorded IC50 = ≤ 10000 nM

Sure, the documented IC50 for Cc1c2c(nn1C1CCC(C)CC1)OCCC(C)Nc1nc(ncc1Cl)N2 (single isomer, unassigned) [E262] is ≤ 10000 nM

Record Cc1c2c(nn1C1CC(N3CCOCC3)C1)OCCCNc1nc(ncc1Cl)N2 (stereo not drawn) . Reported IC50: ≤ 100 nM

Where do the numbers come from? From patent US20200392158A1.
